Item-by-item account of IC50 at 30 min
target-system: UGT-mediated glucuronidation of molidustat (M1 formation) (Homo sapiens)
Sequence (P22309 26-533): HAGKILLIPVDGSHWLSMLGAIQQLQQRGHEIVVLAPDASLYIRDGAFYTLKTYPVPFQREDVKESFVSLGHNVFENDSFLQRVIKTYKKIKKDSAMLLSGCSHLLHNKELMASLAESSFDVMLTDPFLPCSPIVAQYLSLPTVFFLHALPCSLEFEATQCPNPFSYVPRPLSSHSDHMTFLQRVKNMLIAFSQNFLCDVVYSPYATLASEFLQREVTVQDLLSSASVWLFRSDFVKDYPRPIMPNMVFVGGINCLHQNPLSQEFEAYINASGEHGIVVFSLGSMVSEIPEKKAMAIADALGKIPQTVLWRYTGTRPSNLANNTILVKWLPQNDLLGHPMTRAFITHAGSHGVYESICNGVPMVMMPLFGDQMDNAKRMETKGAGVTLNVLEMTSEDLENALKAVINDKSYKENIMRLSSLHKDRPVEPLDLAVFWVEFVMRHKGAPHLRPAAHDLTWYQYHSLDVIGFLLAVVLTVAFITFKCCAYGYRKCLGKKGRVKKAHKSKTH
test-name: Inhibition of M1 formation from molidustat in pooled human liver microsomes
Assay type: in vitro ADME
test-conditions: human, pooled human liver microsomes, probe molidustat 5 µmol/L (formation of M1), IC50, pooled HLMs 0.3 mg/mL, N=1, Table 1

Clc1ccccc1C(c1ccccc1)(c1ccccc1)n1ccnc1 [Clotrimazole] ... 10.2 µM
CNC(=O)c1cc(Oc2ccc(NC(=O)Nc3ccc(Cl)c(C(F)(F)F)c3)cc2)ccn1 [Sorafenib] ... 0.32 µM
COc1cccc2c1C(=O)c1c(O)c3c(c(O)c1C2=O)C[C@@](O)(C(=O)CO)C[C@@H]3O[C@H]1C[C@H](N)[C@H](O)[C@H](C)O1 [Doxorubicin] ... 40.4 µM
COc1ccnc(C[S+]([O-])c2nc3ccc(OC(F)F)cc3[nH]2)c1OC (stereo not shown) [Pantoprazole] ... 19.7 µM
CC#C[C@]1(O)CC[C@H]2[C@@H]3CCC4=CC(=O)CCC4=C3[C@@H](c3ccc(N(C)C)cc3)C[C@@]21C [Mifepristone] ... 1.4 µM

Problem: For O=C(O)C[C@H](O)C[C@H](O)/C=C/c1c(C2CC2)nc2ccccc2c1-c1ccc(F)cc1 [Pitavastatin] , what is its reported IC50 at 30 min?
Result: 14.8 µM

Problem: Query: IC50 at 30 min; subject: CS(=O)(=O)CCNCc1ccc(-c2ccc3ncnc(Nc4ccc(OCc5cccc(F)c5)c(Cl)c4)c3c2)o1 [Lapatinib]
Result: 2.5 µM

###

Assay type: in vivo, human
test-conditions: male, human, plasma, oral, 25 mg
observed-property: half-life (h)
Please reply with the bare figure in h and do not write the unit itself.

Problem: Bench note: what half-life did "O=c1c(-n2ccnn2)c[nH]n1-c1cc(N2CCOCC2)ncn1" show?
Result: 6.3

###

target-system: UGT-mediated glucuronidation of molidustat (M1 formation) (Homo sapiens)
test-name: Inhibition of M1 formation from molidustat in pooled human liver microsomes
Assay type: in vitro ADME
test-conditions: human, pooled human liver microsomes, probe molidustat 5 µmol/L (formation of M1), IC50, pooled HLMs 0.3 mg/mL, N=1, Table 1
hey, just use met if measured IC50 at 30 min is less than 8 µM, otherwise not met

Problem: For "C=CC1=C(C)/C(=C/c2[nH]c(Cc3[nH]c(/C=C4\NC(=O)C(C)=C4C=C)c(C)c3CCC(=O)O)c(CCC(=O)O)c2C)NC1=O" , is the recorded IC50 at 30 min below the cut-off of 8 µM?
Result: met

Problem: Take the molecule "O=c1c(O)c(-c2ccc(O)c(O)c2)oc2cc(O)cc(O)c12" and say whether its IC50 at 30 min is less than 8 µM.
Result: met

Problem: Say whether its IC50 at 30 min is strictly beneath 8 µM. Entry: "Cc1cccc(Nc2ccccc2C(=O)O)c1C"
Result: not met

Problem: Determine if Clc1ccc(COC(Cn2ccnc2)c2ccc(Cl)cc2Cl)c(Cl)c1 (stereo not drawn) shows IC50 at 30 min strictly lower than 8 µM.
Result: not met

Problem: I'd appreciate it if you could check whether "CCCc1nn(C)c2c(=O)[nH]c(-c3cc(S(=O)(=O)N4CCN(C)CC4)ccc3OCC)nc12" has IC50 at 30 min smaller than 8 µM.
Result: not met
